For each of the compounds below, state its r1 human plasma.
- ASSAY_TEXT: Relaxivity measurements at 1.4 T (MiniSpec mq60, 60 MHz, 37 °C) in water and human plasma
- Format: physicochemical
- MEASUREMENT_SETUP: 1.41 T, human plasma, normalized to Gd
- Procedure: Relaxivity Measurements at 1.4 T Relaxivity measurements at 1.41 T were performed using a MiniSpec mq60 spectrometer (Bruker Analytik, Karlsruhe, Germany) operating at a resonance frequency of 60 MHz and a temperature of 37° C. The T1 relaxation times were determined using the standard inversion recovery (IR) method with a fixed relaxation delay of at least 5×T1. The variable inversion time (TI) was calculated automatically by the standard software of the MiniSpec mq60 (8 steps). […]
Value and unit, in that order.

INPUT: Name the reported r1 human plasma value associated with the compound `CN(CC(=O)NCC(CNC(=O)CN(C)C(=O)CN1CCN(CC(=O)[O-])CCN(CC(=O)[O-])CCN(CC(=O)[O-])CC1)(CNC(=O)CN(C)C(=O)CN1CCN(CC(=O)[O-])CCN(CC(=O)[O-])CCN(CC(=O)[O-])CC1)CNC(=O)CN(C)C(=O)CN1CCN(CC(=O)[O-])CCN(CC(=O)[O-])CCN(CC(=O)[O-])CC1)C(=O)CN1CCN(CC(=O)[O-])CCN(CC(=O)[O-])CCN(CC(=O)[O-])CC1.[Gd+3].[Gd+3].[Gd+3].[Gd+3]`
OUTPUT: 11.7 L/mmol/s

INPUT: Proceed to `CCOCCN(CC(=O)NCC(CNC(=O)CN(CCOCC)C(=O)CN1CCN(CC(=O)[O-])CCN(CC(=O)[O-])CCN(CC(=O)[O-])CC1)(CNC(=O)CN(CCOCC)C(=O)CN1CCN(CC(=O)[O-])CCN(CC(=O)[O-])CCN(CC(=O)[O-])CC1)CNC(=O)CN(CCOCC)C(=O)CN1CCN(CC(=O)[O-])CCN(CC(=O)[O-])CCN(CC(=O)[O-])CC1)C(=O)CN1CCN(CC(=O)[O-])CCN(CC(=O)[O-])CCN(CC(=O)[O-])CC1.[Gd+3].[Gd+3].[Gd+3].[Gd+3]`
OUTPUT: 12.5 L/mmol/s

INPUT: Proceed to `COCCN(CC(=O)NCC(CNC(=O)CN(CCOC)C(=O)CN1CCN(CC(=O)[O-])CCN(CC(=O)[O-])CCN(CC(=O)[O-])CC1)(CNC(=O)CN(CCOC)C(=O)CN1CCN(CC(=O)[O-])CCN(CC(=O)[O-])CCN(CC(=O)[O-])CC1)CNC(=O)CN(CCOC)C(=O)CN1CCN(CC(=O)[O-])CCN(CC(=O)[O-])CCN(CC(=O)[O-])CC1)C(=O)CN1CCN(CC(=O)[O-])CCN(CC(=O)[O-])CCN(CC(=O)[O-])CC1.[Gd+3].[Gd+3].[Gd+3].[Gd+3]`
OUTPUT: 11.7 L/mmol/s

INPUT: Proceed to `O=C([O-])CN1CCN(CC(=O)[O-])CCN(CC(=O)N(CC(=O)NCC(CNC(=O)CN(Cc2ccccc2)C(=O)CN2CCN(CC(=O)[O-])CCN(CC(=O)[O-])CCN(CC(=O)[O-])CC2)(CNC(=O)CN(Cc2ccccc2)C(=O)CN2CCN(CC(=O)[O-])CCN(CC(=O)[O-])CCN(CC(=O)[O-])CC2)CNC(=O)CN(Cc2ccccc2)C(=O)CN2CCN(CC(=O)[O-])CCN(CC(=O)[O-])CCN(CC(=O)[O-])CC2)Cc2ccccc2)CCN(CC(=O)[O-])CC1.[Gd+3].[Gd+3].[Gd+3].[Gd+3]`
OUTPUT: 13.3 L/mmol/s

INPUT: Proceed to `CC(C)CN(CC(=O)NCC(CNC(=O)CN(CC(C)C)C(=O)CN1CCN(CC(=O)[O-])CCN(CC(=O)[O-])CCN(CC(=O)[O-])CC1)(CNC(=O)CN(CC(C)C)C(=O)CN1CCN(CC(=O)[O-])CCN(CC(=O)[O-])CCN(CC(=O)[O-])CC1)CNC(=O)CN(CC(C)C)C(=O)CN1CCN(CC(=O)[O-])CCN(CC(=O)[O-])CCN(CC(=O)[O-])CC1)C(=O)CN1CCN(CC(=O)[O-])CCN(CC(=O)[O-])CCN(CC(=O)[O-])CC1.[Gd+3].[Gd+3].[Gd+3].[Gd+3]`
OUTPUT: 14.1 L/mmol/s
